target: SARS-CoV-2 M^pro (Severe acute respiratory syndrome coronavirus 2); assay: Inhibition profiling in cell culture (dark-to-bright GFP reporter substrate, flow cytometry); assay type: cell-based; details: HEK-293 T cells co-transfected with CoV-2 M^pro and PR-Sub plasmids, 24 h, GFP fluorescence, triplicate experiments; read-out: IC50
measurement-label: IC50 (µM)
Answer format: numeric, µM implied, no suffix.

stdin: Output measured IC50 for this item: `COC(=O)N[C@H](C(=O)N[C@@H](Cc1ccccc1)[C@@H](O)CN(Cc1ccc(-c2ccccn2)cc1)NC(=O)[C@@H](NC(=O)OC)C(C)(C)C)C(C)(C)C`
stdout: 60.7
